tested on: Class C beta-lactamase CMY/DHA (E. coli M50); test: Beta-lactamase enzyme inhibition (Nitrocefin, crude enzyme); type: biochemical; settings: Nitrocefin 100 μM
Reported IC50 values are given for each entry in this list.

{"structure as smiles": "O=C1N2C[C@@H](CC[C@H]2c2nnc(CC3CCNCC3)o2)N1OS(=O)(=O)O", "unit tag": "nM", "IC50": 20}
{"structure as smiles": "O=C1N2C[C@@H](CC[C@H]2c2nnc(CCc3ccccc3)o2)N1OS(=O)(=O)O", "unit tag": "nM", "IC50": 4}
{"structure as smiles": "O=C1N2C[C@@H](CC[C@H]2c2nnc(C(c3ccccc3)c3ccccc3)o2)N1OS(=O)(=O)O", "unit tag": "nM", "IC50": 17}
{"structure as smiles": "Nc1ccc(Cc2nnc([C@@H]3CC[C@@H]4CN3C(=O)N4OS(=O)(=O)O)o2)cc1", "unit tag": "nM", "IC50": 13}
{"structure as smiles": "O=C1N2C[C@@H](CC[C@H]2c2nnc(Cc3ccc(O)cc3)o2)N1OS(=O)(=O)O", "unit tag": "nM", "IC50": 0.1}
{"structure as smiles": "O=C1N2C[C@@H](CC[C@H]2c2nnc(Cc3ccccc3)o2)N1OS(=O)(=O)O", "unit tag": "nM", "IC50": 6}
{"structure as smiles": "O=C1N2C[C@@H](CC[C@H]2c2nnc(CC3CNC3)o2)N1OS(=O)(=O)O", "unit tag": "nM", "IC50": 402}
{"structure as smiles": "COc1ccc(Cc2nnc([C@@H]3CC[C@@H]4CN3C(=O)N4OS(=O)(=O)O)o2)cc1", "unit tag": "nM", "IC50": 13}
